Provide the reported GI50 of each item.
Tested on: PC-3
Protocol notes: NCI tumour cell line growth inhibition, 48 h
The source made the active and inactive calls. Rule as the data show it: active = GI50 up to about 1.1 µM and inactive = higher.

Example entries begin here.
Compound | GI50
O=C1Cc2c([nH]c3c(Br)cccc23)-c2ccccc2N1 | 49.8 µM (inactive)
CC12CCC3c4cc(Br)c(O)c(Br)c4CCC3C1CCC2O (configuration not stated) | 29.4 µM (inactive)
CSc1ncc2c(n1)-c1ccccc1OC2NC1CC1 (configuration not stated) | 50.7 µM (inactive)

Your task in this section: give GI50 for each listed record.
1. CCN(C(C)=O)c1cnc(/C=N/NC(N)=S)c2ccccc12
2. CC(=O)NC(=O)/N=C1\NCCC(=O)N1CCc1c[nH]c2ccccc12
3. N=c1oc2ccccc2cc1-c1nc2ccccc2[nH]1
4. CO/N=C1/c2sccc2[C@H](NC(=O)C(Cc2ccccc2)NC(=O)OC(C)(C)C)[C@@H]1O (some centres not stated)
5. O=C1C=C(NCCOCCO)C(=O)c2c(O)ccc(O)c21
6. Cc1c(F)c(N)c2c(=O)cc(-c3ccc(NC(=O)CN(C)C)c(F)c3)oc2c1F
7. CC1=NNC(=O)C1C1C(=O)NN=C(c2c[nH]c3ccccc23)C1Br (configuration not stated)

[out]
1. 4.15 µM (inactive)
2. > 100 µM (inactive)
3. 78 µM (inactive)
4. > 100 µM (inactive)
5. 28.1 µM (inactive)
6. 38.3 µM (inactive)
7. 25.5 µM (inactive)

Your task in this section: give GI50 for each listed record.
1. Cc1ccc(S(=O)(=O)NC(=O)Nc2c(S(N)(=O)=O)cc(S(N)(=O)=O)c(Cl)c2Cl)cc1
2. CC(C)=CC(C)C(C(O)CCC1(c2ccoc2)OCCO1)S(=O)(=O)c1ccccc1 (configuration not stated)

[out]
1: > 100 µM (inactive); 2: > 100 µM (inactive)

====

System: PC-3
Protocol notes: NCI tumour cell line growth inhibition, 48 h
Active and inactive are the calls of the source. Rule as the data show it: active = GI50 up to about 1.1 µM and inactive = higher.
Just give me one of these, please: true (active), false (inactive)

Use the examples below as a reference point.
Compound | Target desc | Class
Cc1nc2[nH]ccn2c(=O)c1CCO | PC-3 | false
CC1=CC(=O)CC(C)(C)C1/C=C/C(C)=C/C=C/C(C)=C/C=C/C=C(C)/C=C/C=C(C)/C=C/C1=C(C)CC(O)CC1(C)C (centres undefined) | PC-3 | false
CC1CN(CCO)CC(C)O1 (centres undefined) | PC-3 | false

Continue with the compound presented below.
[in] Which outcome was entered for the compound Cc1nn(-c2ccccc2)c2c1C(c1ccc(Cl)cc1)NC(=S)N2 (centres undefined) in this test?
[out] false

====

Tested on: HOP-62
Protocol notes: NCI tumour cell line growth inhibition, 48 h
Active and inactive are the calls of the source. Cut-off read from the data, not from the text of the source: active = GI50 up to about 1.1 µM and inactive = higher. Starred links: 1 amine or outer side, 2 acyl side, 3 side chain; linkers in the order of their positions; H or OH if unused. Positions of bridges follow the written chain, without caps; N, C: chain ends. Non-standard residues stand in square brackets, D forms with d. Residues, ends and D or L forms follow the SMILES beside them. ξ: configuration not given here. X37 = CC[C@H](C)[C@@H](N[*:1])[C@@H](O)CC(=O)O[C@H](C(=O)[C@H](C)C(=O)[*:2])C(C)C; NMeY = CN[C@@H](Cc1ccc(O)cc1)C(=O)O; dNMeL = CN[C@H](CC(C)C)C(=O)O; ξΔPro = O=C(O)C1C=CCN1
Just give me one of these, please: y (active), n (inactive)

Use the examples below as a reference point.
Molecule | Class
COc1c2c3c4c(c(OC)c(=O)c5c(O)cc(OC)c(c6c(OC)cc(O)c(c1=O)c63)c54)C(C(C)O)C2C(C)O (stereo not given) | y
COc1cc([C@@H]2c3cc4c(cc3C[C@H]3COC(=O)[C@@H]32)OCO4)cc2c1OCO2 | y

[in] Which outcome was entered for the molecule `O=C1/C(=C/c2ccc(C(=O)O)cc2)CNC/C1=C\c1ccc(C(=O)O)cc1` in this test?
[out] n

[in] Next up: `c1ccc(CSCCc2ccncc2)cc1`
[out] n

[in] Next up: CC[C@H](C)[C@H]1NC(=O)[C@@H](NC(=O)[C@@H](CC(C)C)N(C)C(=O)C2C=CCN2)[C@@H](C)OC(=O)[C@H](Cc2ccc(OC)cc2)N(C)C(=O)[C@@H]2CCCN2C(=O)[C@H](CC(C)C)NC(=O)[C@@H](C)C(=O)[C@H](C(C)C)OC(=O)C[C@@H]1O (stereo not given in full) (H-[ξΔPro][dNMeL]T[X37]LP[NMeY](Me); ester 3-C)
[out] y

[in] Next up: `COc1cc2ccnc3c2c(c1OC)-c1coc(SC)c1-3`
[out] n

[in] Next up: CCCC(=O)Nc1cc(/C=C/C(=O)N2CC(CCl)c3c2cc([N+](=O)[O-])c2ccccc32)n(C)c1 (stereo not given)
[out] n

====

System: HL-60
Protocol notes: NCI tumour cell line growth inhibition, 48 h
The source made the active and inactive calls. No stated cut-off is given here; in the data, active = GI50 up to about 1.1 µM and inactive = higher.
Provide the reported GI50 of each item.

Example entries begin here.
Compound | GI50
N=c1oc2ccc([N+](=O)[O-])cc2cc1C(=O)Nc1ccccn1 | 49.4 µM (inactive)
Cc1cn(C2CCC(CO)(CF)O2)c(=O)[nH]c1=O (stereo not given) | > 100 µM (inactive)
C=CCn1c(=O)c2ccccc2[n+]2c(C)c(C(=O)OCC)sc12 | > 100 µM (inactive)
CCCCNC(=S)Nn1c(-c2ccccc2)nc2ccccc2c1=O | 25.7 µM (inactive)
O=c1c2cc(I)ccc2nc(SCc2n[nH]c(=S)o2)n1Cc1ccccc1 | 4.71 µM (inactive)

Your task in this section: give GI50 for each listed record.
1. COc1ccc(C2c3cc4c(cc3OC(NNC(N)=O)C2C)OCO4)cc1 (stereo not given)
2. CCC1CN2CCc3cc(OC)c(OC)cc3C2CC1CC1c2cc(OC)c(OC)cc2CCN1C(=O)C(N)Cc1ccccc1.[O-][Cl+3]([O-])([O-])O (stereo not given)
3. C/C(CN1C(=O)c2ccccc2C1=O)=N\NS(=O)(=O)c1ccc2ccccc2c1

[out]
1. 2.2 µM (inactive)
2. 1.59 µM (inactive)
3. > 100 µM (inactive)

====

Test system: SK-MEL-5
Protocol notes: NCI tumour cell line growth inhibition, 48 h
Activity calls are given as the source filed them. Cut-off read from the data, not from the text of the source: active = GI50 up to about 1.1 µM and inactive = higher.
Just give me one of these, please: active, inactive

Use the examples below as a reference point.
Compound | Class
COc1ccc(/C=C/C(=O)/C=C/c2ccc(OC)cc2)cc1 | inactive
CCC(=O)N(O)C(C)(C)C | inactive

[in] Which outcome was entered for the compound `Cc1ccc(-c2c(C#N)c(S)n(NS(=O)(=O)c3ccccc3)c(=O)c2C#N)cc1` in this test?
[out] inactive

[in] Next up: `Oc1cc(CN2CCOCCOCCOCCOCC2)c(O)cc1CN1CCOCCOCCOCCOCC1`
[out] inactive

[in] Next up: `O=C(O)c1cc(=O)c2[nH]c3ccccc3c2s1`
[out] inactive

[in] Next up: `CCC1=NC(N/N=C/c2ccco2)=N/C1=C\c1ccco1`
[out] inactive

[in] Next up: `COc1ccc(/C=C/C(=O)c2cc(C(C)(C)C)c(O)c(C(C)(C)C)c2)cc1OC`
[out] inactive

[in] Next up: COc1cc(C2C(Cl)C(=O)N2NC(=O)c2ccc(NC(C)=O)cc2)cc(OC)c1OC (centres undefined)
[out] inactive

[in] Next up: OC1(c2ccccc2)CC2CCC(C1)N2CCCC(O)(c1ccccc1)c1ccccc1 (centres undefined)
[out] inactive

[in] Next up: `CNNC1=NS(=O)(=O)c2cc(C#N)c(Cl)cc2S1`
[out] inactive

[in] Next up: O=C1C2c3[nH]c4ccccc4c3C3CCCCCC3C2C(=O)N1c1ccccc1 (centres undefined)
[out] inactive

[in] Next up: `O=C1[C@@H]2[C@@H](c3ccccc3)[C@]2(Cl)C(=O)[C@H]2[C@H](c3ccccc3)[C@@]12Cl`
[out] inactive

====

System: NCI-H460
Protocol notes: NCI tumour cell line growth inhibition, 48 h
Calls of active or inactive are those of the source. Cut-off read from the data, not from the text of the source: active = GI50 up to about 1.1 µM and inactive = higher.
Just give me one of these, please: true (1) (active), false (0) (inactive)

Molecule | Class
COC(=O)C1=C(C(=O)OC)C(C(=O)OC)C(C(=O)OC)=C1C(=O)OC | false (0)

[in] Which outcome was entered for the molecule `CN(C)c1nc(N(C)C)n2nc(-c3ccccc3[N+](=O)[O-])nc2n1` in this test?
[out] false (0)

[in] Next up: `CSC1=C(C(=O)Nc2ccccc2)C(N)=NC1=O`
[out] false (0)

[in] Next up: COC(=O)C1CC(c2ccc(Cl)cc2)=NO1 (stereo unspecified)
[out] false (0)

[in] Next up: CO/N=C1/c2sccc2[C@H](NC(=O)C(Cc2ccccc2)NC(=O)OC(C)(C)C)[C@@H]1O (stereo partly specified)
[out] false (0)

[in] Next up: `CC(=O)c1ccc2c(c1)oc(=O)n2CCN(C)C`
[out] false (0)

[in] Next up: C=C(C)CC1(O[Si](C)(C)C)C(=O)C(OCC)=C1OCC (stereo unspecified)
[out] false (0)

[in] Next up: `Nc1nc(OCc2ccccc2)c2nc[nH]c2n1`
[out] false (0)

[in] Next up: CC1C(OC2O[C@@H]3O[C@@]4(C)CC[C@H]5[C@H](C)CC[C@@H](C2C)[C@@]35O4)O[C@@H]2O[C@@]3(C)CC[C@H]4[C@H](C)CC[C@@H]1[C@@]24O3 (stereo partly specified)
[out] false (0)

[in] Next up: `COC(=O)CC(SCCO)SCCO`
[out] false (0)

[in] Next up: `CN(C)CCCNC(=O)c1c(-c2cccnc2)cnc2ccccc12`
[out] false (0)

[in] Next up: CCOC(=O)CCC(NC(=O)c1ccc(OCc2nc3cc(C(F)(F)F)ccc3nc2-c2ccccc2)cc1)C(=O)OCC (stereo unspecified)
[out] false (0)
